Recorded IC50 values for a group of molecules are listed next.
system: SK-Hep-1 cell lines (a hepatocellular carcinoma (HCC) cell); assay: MTT assay, growth inhibition of SK-Hep-1 cells; assay type: cell-based; conditions: Homo sapiens, SK-HEP1, 48 h, SK-Hep-1 cells, 48 hours
Quantity Name: IC50

structure=FC(F)(F)c1cc(Nc2ccnc(Nc3ccc(Cl)c(C(F)(F)F)c3)n2)ccc1Cl tested_on="SK-Hep-1 cell lines (a hepatocellular carcinoma (HCC) cell)" quantity_name=IC50 result="10 to 20 µM"
structure=Clc1nccc(Nc2ccc(Oc3ccccc3)cc2)n1 tested_on="SK-Hep-1 cell lines (a hepatocellular carcinoma (HCC) cell)" quantity_name=IC50 result="> 40 µM"
structure=C#Cc1cccc(N(C)c2nc(Cl)nc3cc(OC)c(OC)cc23)c1 tested_on="SK-Hep-1 cell lines (a hepatocellular carcinoma (HCC) cell)" quantity_name=IC50 result="10 to 20 µM"
structure=COc1cc2nc(Cl)nc(Nc3cccc(Oc4ccc(C#N)cc4)c3)c2cc1OC tested_on="SK-Hep-1 cell lines (a hepatocellular carcinoma (HCC) cell)" quantity_name=IC50 result="> 40 µM"
structure=C#Cc1cccc(Nc2nc(Nc3cccc(C#C)c3)c3cc(OC)c(OC)cc3n2)c1 tested_on="SK-Hep-1 cell lines (a hepatocellular carcinoma (HCC) cell)" quantity_name=IC50 result="< 10 µM"
structure=COc1cc2nc(Cl)nc(Nc3ccc(Oc4ccccc4)cc3)c2cc1OC tested_on="SK-Hep-1 cell lines (a hepatocellular carcinoma (HCC) cell)" quantity_name=IC50 result="10 to 20 µM"
structure=COc1cc2nc(Cl)nc(NCc3ccccc3)c2cc1OC tested_on="SK-Hep-1 cell lines (a hepatocellular carcinoma (HCC) cell)" quantity_name=IC50 result="10 to 20 µM"
structure=Clc1nccc(NCc2ccccc2)n1 tested_on="SK-Hep-1 cell lines (a hepatocellular carcinoma (HCC) cell)" quantity_name=IC50 result="> 40 µM"
structure=C#Cc1cccc(Nc2nc(Nc3cccc(Cl)c3)nc3cc(OC)c(OC)cc23)c1 tested_on="SK-Hep-1 cell lines (a hepatocellular carcinoma (HCC) cell)" quantity_name=IC50 result="< 10 µM"
structure=COc1cc2nc(Cl)nc(Nc3cccc(Cl)c3)c2cc1OC tested_on="SK-Hep-1 cell lines (a hepatocellular carcinoma (HCC) cell)" quantity_name=IC50 result="10 to 20 µM"
structure=COc1cc2nc(Cl)nc(Nc3cc(C)ccc3F)c2cc1OC tested_on="SK-Hep-1 cell lines (a hepatocellular carcinoma (HCC) cell)" quantity_name=IC50 result="> 40 µM"
structure=C#Cc1cccc(Nc2nc(Nc3cccc(NS(=O)(=O)c4ccccc4)c3)nc3cc(OC)c(OC)cc23)c1 tested_on="SK-Hep-1 cell lines (a hepatocellular carcinoma (HCC) cell)" quantity_name=IC50 result="< 10 µM"
structure=C#Cc1cccc(Nc2nc(Nc3ccc(Oc4ccc(C#N)cc4)cc3)nc3cc(OC)c(OC)cc23)c1 tested_on="SK-Hep-1 cell lines (a hepatocellular carcinoma (HCC) cell)" quantity_name=IC50 result="10 to 20 µM"

====

test system: SK-Hep-1 cell lines (a hepatocellular carcinoma (HCC) cell); assay: MTT assay, growth inhibition of SK-Hep-1 cells; type: cell-based; settings: SK-Hep-1 cells, 48 hours
Lab note: cut-off is 3000 nM. Strictly less in IC50 is condition met. Exactly 3000 nM or more is condition not met.

structure=C#Cc1cccc(Nc2nc(NCc3ccccc3)nc3cc(OC)c(OC)cc23)c1 tested_on="SK-Hep-1 cell lines (a hepatocellular carcinoma (HCC) cell)" assigned_class="condition met"
structure=C#Cc1cccc(Nc2nc(Nc3ccc(Oc4ccccc4)cc3)nc3cc(OC)c(OC)cc23)c1 tested_on="SK-Hep-1 cell lines (a hepatocellular carcinoma (HCC) cell)" assigned_class="condition met"
structure=C#Cc1cccc(Nc2nc(Nc3cccc(NS(=O)(=O)c4cccc(C(F)(F)F)c4)c3)nc3cc(OC)c(OC)cc23)c1 tested_on="SK-Hep-1 cell lines (a hepatocellular carcinoma (HCC) cell)" assigned_class="condition met"
structure=C#Cc1cccc(Nc2nc(Nc3cccc(NC(=O)c4ccccc4)c3)nc3cc(OC)c(OC)cc23)c1 tested_on="SK-Hep-1 cell lines (a hepatocellular carcinoma (HCC) cell)" assigned_class="condition met"
structure=C#Cc1cccc(Nc2nc(Nc3ccc(Oc4ccc(C#N)cc4)cc3)nc3cc(OC)c(OC)cc23)c1 tested_on="SK-Hep-1 cell lines (a hepatocellular carcinoma (HCC) cell)" assigned_class="condition not met"
structure=C#Cc1cccc(N(C)c2nc(Cl)nc3cc(OC)c(OC)cc23)c1 tested_on="SK-Hep-1 cell lines (a hepatocellular carcinoma (HCC) cell)" assigned_class="condition not met"
